Data origin: ChEMBL document CHEMBL1126488

- TEST SUMMARY: Lethal dose of compound required when administered BALB C mice
- Format: toxicity
- STUDY CONDITIONS: mouse, in vivo
PROPERTY NAME: LD50 (mg/kg)
# unit: mg/kg | format: bare number

Look up LD50 for this molecule: COc1cccc2c1C(=O)c1c(O)c3c(c(O)c1C2=O)C[C@@](O)(C(C)=O)C[C@@H]3O[C@H]1C[C@H](N)[C@H](O)[C@H](C)O1.Cl [DAUNORUBICIN HYDROCHLORIDE]
15

* * *

- Test system: CHO
- TEST SUMMARY: Cytotoxicity of compound was tested against CHO cell line (Chinese hamster ovary) after incubation for 24 hour
- Format: functional, cell-based
- STUDY CONDITIONS: Cricetulus griseus
PROPERTY NAME: IC50
Answers without a unit are incomplete; give the number and then its unit.

Look up IC50: COc1cccc2c1C(=O)c1c(O)c3c(c(O)c1C2=O)C[C@@](O)(C(C)=O)C[C@@H]3O[C@H]1C[C@H](N)[C@H](O)[C@H](C)O1.Cl [DAUNORUBICIN HYDROCHLORIDE]
390 nM
